Test system: CAKI-1 renal
assay_notes: NCI-60 one-dose screen, 48 h (100 = growth as untreated, 0 = no growth, -100 = all killed)
test_settings: 10 µM unless noted
This is part of a sample that, as a whole, favours compounds with a hit. Of some 83,000 tested, about 20% had one in any assay.

compound: COc1ccc2c(c1)nc(N)c1c3cc(C)c(C)cc3cn21
test_target: CAKI-1 renal
unit_string: %
growth: 59.2
//
compound: CC1CC(C)/C(=N/NC(N)=O)C(C(O)CC2CCC(=O)NC2=O)C1 (stereo not given)
test_target: CAKI-1 renal
unit_string: %
growth: 35.5
//
compound: Clc1ncn[nH]1
test_target: CAKI-1 renal
unit_string: %
growth: 92.5
//
compound: N#Cc1cnc2cc(OC[C@H](O)CO)c(NC(=O)CC3CSSC3)cc2c1Nc1ccc(OCc2cccc(F)c2)c(Cl)c1
test_target: CAKI-1 renal
unit_string: %
growth: 70.1
//
compound: C=CC1=C(C(=O)O)N2C(=O)[C@@H](NC(=O)/C(=N\O)c3csc(N)n3)[C@H]2SC1 (stereo in doubt)
test_target: CAKI-1 renal
unit_string: %
growth: 99.2
//
compound: Cc1c(C(N)=O)sc2c1C(=O)N(Cc1ccccc1)C1=NN=C(c3ccc(Cl)cc3)CN12
test_target: CAKI-1 renal
unit_string: %
growth: 18.6
//
compound: O=c1c(O)cccn1CCCNCCCN(CCCn1cccc(O)c1=O)CCCn1cccc(O)c1=O
test_target: CAKI-1 renal
unit_string: %
growth: 103
//
compound: CC(c1cc(Cl)ccc1O)c1cc(Cl)ccc1O
test_target: CAKI-1 renal
unit_string: %
growth: 84.9
//
compound: C/C(=N\N1CC(=O)NC1=O)c1ccc([N+](=O)[O-])o1
test_target: CAKI-1 renal
unit_string: %
growth: 109
//
compound: COC(=O)CCC1=C(C)C(C)=N/C1=C\c1[nH]c(-c2ccc[nH]2)cc1OC
test_target: CAKI-1 renal
unit_string: %
growth: 11.6
